Values were extracted from patent US20120149104A1.

- MEASURED_TARGET: SNAP-25 peptide comprising amino acids 134-197 of SEQ ID NO: 5 (human)
- ASSAY_EXPLANATION: SPR (BIAcore 3000), peptide on CM5 chip, antibody in flow
ASSAY_METRIC: kon
Just so you know, I need the unit written after the number.

Record α-SNAP-25 monoclonal antibody 1D3B8 (antibody, V domains shown) VH: QVKLQESGAELVKPGASVKISCKASGYIFTDHALHWVRQKPEQGLEWIGYIFPGNGNIEYNEKFKGKATLTADKSSSTAYMQLNSLTSGDSAMYFCKKMDYWGQGTTVTVSS VL: DVLMTQTPLSLPVSLGDQASISCRSSQSIVHSNGNTYLEWYLQKPGQSPKLLIYKVSNRFSGVPDRFSGSGSGTDFTLKISRVEAEDLGVYYCFQGSHVPPTFGAGTKLELKR . Reported kon: 1.06e+06 M⁻¹ s⁻¹
